- targetOfAssay: Focal adhesion kinase 1 (Homo sapiens) (UniProt Q05397)
- Sequence (Q05397 whole entry, looked up): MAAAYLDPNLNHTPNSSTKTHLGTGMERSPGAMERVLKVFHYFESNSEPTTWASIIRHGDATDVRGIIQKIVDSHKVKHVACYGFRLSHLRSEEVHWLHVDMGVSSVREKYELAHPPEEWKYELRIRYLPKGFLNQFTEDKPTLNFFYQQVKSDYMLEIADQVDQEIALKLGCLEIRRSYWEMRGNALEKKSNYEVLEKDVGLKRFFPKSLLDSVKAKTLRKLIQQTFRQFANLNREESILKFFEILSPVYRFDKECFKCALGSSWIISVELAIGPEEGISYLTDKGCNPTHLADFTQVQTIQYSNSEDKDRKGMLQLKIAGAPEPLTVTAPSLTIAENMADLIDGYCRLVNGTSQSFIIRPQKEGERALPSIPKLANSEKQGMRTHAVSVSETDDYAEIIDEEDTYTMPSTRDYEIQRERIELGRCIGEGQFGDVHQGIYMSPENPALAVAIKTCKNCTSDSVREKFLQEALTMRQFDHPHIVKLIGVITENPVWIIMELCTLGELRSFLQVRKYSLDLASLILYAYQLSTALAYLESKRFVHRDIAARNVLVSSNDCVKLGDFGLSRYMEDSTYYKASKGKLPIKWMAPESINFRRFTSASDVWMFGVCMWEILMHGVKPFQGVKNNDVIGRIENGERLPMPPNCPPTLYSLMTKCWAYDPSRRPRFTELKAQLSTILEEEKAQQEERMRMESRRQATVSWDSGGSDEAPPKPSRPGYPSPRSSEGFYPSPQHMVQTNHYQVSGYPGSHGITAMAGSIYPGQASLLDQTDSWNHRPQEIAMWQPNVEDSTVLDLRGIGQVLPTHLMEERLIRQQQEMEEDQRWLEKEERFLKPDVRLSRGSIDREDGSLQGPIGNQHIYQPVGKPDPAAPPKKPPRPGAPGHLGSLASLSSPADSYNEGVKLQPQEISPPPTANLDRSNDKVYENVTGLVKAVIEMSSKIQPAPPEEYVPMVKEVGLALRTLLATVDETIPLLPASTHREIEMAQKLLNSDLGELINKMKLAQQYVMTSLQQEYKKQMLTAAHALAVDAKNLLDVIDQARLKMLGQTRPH
- testSummary: small-molecule microarray binders of FAK, primary screen, biochemical, 635/667 nm fluorescence, BSA, DTT (AID 1130);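 note: composite of spot emission at 667 nm and signal to noise over triplicate slides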
- conditionNotes: PTK2 binding, 635 nm fluorescence, higher = more signal
Reported composite z-score values are given for each entry in this list.

{"columns": ["molecule", "composite z-score"],
 "data": [
  ["COC(=O)[C@H](Cc1ccccc1)N1CC2=C[C@@H](C3CC3)n3c(=O)n(C)c(=O)n3[C@H]2[C@@H]1[C@@H](O)Cc1ccccc1", 0.148],
  ["COc1ccc(-c2cc3c(c(-c4ccc(Oc5ccccc5)cc4)n2)[Si](C(C)C)(C(C)C)OC3)cn1", 0.158],
  ["CCCC[C@H]1OB(O)C[C@H]2C1=C(COC)C[C@H]1C(=O)N(C)C(=O)[C@H]12", 0.18],
  ["CC(CO)N1C(=O)[C@@H]2C3C(=O)OCCC/C=C\\[C@H]3OC23C=CCN(C(C)(C)C)C(=O)[C@@H]13 (stereo partly specified)", -0.05],
  ["C=CCOC(=O)[C@H]1[C@@H]2C(=O)O[C@@H](c3ccccc3)[C@@H](c3ccccc3)N2[C@@H](c2ccc(OCCOC(=O)[C@@H]3C[C@@H]4C(=O)N[C@@H](CCCCNC(C)=O)C(=O)N4[C@@H]3c3ccc(O)cc3)cc2)[C@]12C(=O)Nc1ccccc12", 1.14],
  ["COCCOC(=O)N1C(=O)[C@@]2(c3cc(C#CCC(C(=O)OC)C(=O)OC)ccc31)[C@H](C(=O)N1CCN(c3ncccn3)CC1)[C@H]1C(=O)O[C@H](c3ccccc3)[C@H](c3ccccc3)N1[C@@H]2c1ccccc1OCCO", 0.467]
]}

====

- Test system: Noggin (protein binding on small-molecule microarray)
- testSummary: Noggin binders on small-molecule microarray, primary screen, biochemical, 635/667 nm fluorescence (AID 1095);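 note: score merges 667 nm feature fluorescence with signal to noise over triplicate slides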
- conditionNotes: 635 nm fluorescence, higher = more signal
Classes are defined on composite z-score with ranges A = under 0.2, B = from 0.2 up to 0.6, C = 0.6 and over

{"columns": ["compound", "assignedClass"],
 "data": [
  ["COc1ccc(CCNC(=O)[C@@]2(Sc3ccc(C)cc3)CC(=O)N(C3Cc4ccccc4C3)[C@@H]2c2ccc(CO)cc2I)cc1", "A"],
  ["C=C(C)[C@@H]1CC=C(C(O)C2C=CC3C(=O)N(C)C(=O)C3N2Nc2ccccc2)CC1 (stereo partly drawn)", "C"],
  ["CCCCCN1CC=CC23O[C@@H]4C=CCCOC(=O)C4[C@H]2C(=O)N(CCCCCO)[C@@H]3C1=O (stereo partly drawn)", "A"],
  ["CCOC(=O)C1=CC[C@@H](c2ccccc2)N(S(=O)(=O)c2ccc(C)cc2)[C@H]1c1ccccc1C", "C"],
  ["CCOC(=O)C[C@H]1[C@H](OC(=O)c2ccc(C(=O)c3ccccc3)cc2)[C@@H](NC(=O)c2ccc3ccccc3n2)c2cc(OCCCO)ccc2N1C(=O)c1ccccc1", "B"],
  ["CC(=O)NCCCC[C@@H]1NC(=O)[C@@H]2C[C@H](C(=O)NCCCCCNC(=O)CS)[C@H](c3cccc(OCCO)c3)N2C1=O", "C"],
  ["CCOC(=O)C[C@H]1[C@H](OC(=O)c2ccc(C(=O)c3ccccc3)cc2)[C@@H](NC(=O)c2ccccc2)c2cc(OCCCO)ccc2N1C(=O)Cc1ccc(OC)cc1", "B"],
  ["COCCOC(=O)N1C(=O)[C@@]2(c3cc(C#CC4(O)CCCCCC4)ccc31)[C@H](c1ccccc1OCCO)N1[C@H](c3ccccc3)[C@H](c3ccccc3)OC(=O)[C@H]1[C@@H]2C(=O)N1CCN(c2ncccn2)CC1", "B"],
  ["COc1cc2c(cc1OC)CN(C(=O)[C@H]1[C@@H]3C(=O)O[C@@H](c4ccccc4)[C@@H](c4ccccc4)N3[C@@H](c3ccc(O)cc3)[C@]13C(=O)Nc1ccc(C#CCCO)cc13)CC2", "C"],
  ["O=C(c1ccccc1)N1C(=O)[C@@]2(Cc3ccccc31)N=C(c1ccc(OCCCO)cc1)O[C@H]2c1ccccc1", "B"],
  ["CCOC(=O)C[C@H]1[C@H](OC(=O)c2ccc(-c3ccccc3)cc2)[C@@H](NC(=O)Cc2ccc(OC)cc2)c2cc(OCCCO)ccc2N1C(=O)c1ccccc1", "C"],
  ["O=C1N(Cc2ccccc2)c2ccccc2[C@@H]2OC(c3ccc(OCCCO)cc3)=N[C@]12CCS(=O)(=O)c1ccccc1", "C"],
  ["COc1ccc(C(O)C2C=CC3C(=O)N(Cc4ccccc4)C(=O)C3N2n2cnnc2)cc1OCc1ccccc1 (stereo not drawn)", "A"],
  ["C=C[C@H](CO[Si](CC)(CC)CC)N(Cc1ccc(OC(C)=O)c(OC)c1)S(=O)(=O)c1ccc(Br)cc1", "A"],
  ["O=C(N1CCCCC1)[C@]1(Cc2ccccc2)N=C(c2ccc(OCCCO)cc2)O[C@@H]1c1ccccc1", "A"],
  ["NC(=O)NCC#Cc1ccc2c(c1)[C@]1(C(=O)N2)[C@H](C(N)=O)[C@H]2C(=O)O[C@H](c3ccccc3)[C@H](c3ccccc3)N2[C@@H]1c1ccc(O)cc1", "B"],
  ["C=CCC(OC(C)=O)[C@@H]1[C@@H](N(Cc2ccc(-c3ccccc3)cc2)C(=O)c2ccc(-c3ccccc3)cc2)c2cc(OCCCO)ccc2N1C(=O)Cc1ccc2ccccc2c1 (stereo partly drawn)", "B"],
  ["COC(=O)[C@@]1(Cc2ccccc2)N=C(c2ccc(OCCCO)cc2)O[C@H]1c1ccccc1", "A"],
  ["CC(C)(C)OC(=O)CC[C@]1(C(=O)N2CCOCC2)N=C(c2ccc(OCCCO)cc2)O[C@H]1c1ccccc1N=[N+]=[N-]", "B"],
  ["C=C(COC)/C(=C/C[C@@H](OC(=O)c1ccncc1)c1ccc(CO)o1)c1cc(C(=O)OC)ccc1OC", "C"],
  ["COc1ccc(CCNC(=O)[C@@H]2c3ccccc3C(=O)N(Cc3ccccc3Cl)[C@H]2c2ccc(CO)cc2)cc1", "A"],
  ["COCCCNC(=O)[C@@]1(C)c2ccccc2C(=O)N(C(C)C)[C@H]1c1ccc(CO)cc1", "B"],
  ["CCOC(=O)C[C@H]1[C@H](OC(=O)c2ccc(C(=O)c3ccccc3)cc2)[C@@H](NC(=O)c2ccccc2)c2cc(OCCCO)ccc2N1C(=O)c1ccc2ccccc2n1", "A"],
  ["O=C1c2ccccc2[C@](Cc2ccccc2I)(C(=O)NCCN2CCOCC2)[C@H](c2ccc(CO)cc2)N1C1CCCCC1", "C"],
  ["CC(C)c1ccc(NN2C(C(O)c3ccc(B(O)O)cc3)C=CC3C(=O)N(c4ccccc4)C(=O)C32)cc1 (stereo not drawn)", "A"],
  ["C=C[C@H](CO)NS(=O)(=O)c1ccc(Br)cc1", "A"],
  ["COC(=O)[C@H](Cc1ccccc1)N1CC2=C[C@@H](C3CC3)n3c(=O)n(C)c(=O)n3[C@H]2[C@@H]1[C@@H](O)Cc1ccccc1", "C"]
]}
